- Test system: Galium (catchweed bedstraw, Galium aparine)
- measurementProtocol: Test A postemergence
- Type: in vivo
- conditionNotes: Galium, post-emergence, 240 h, Postemergence, 31 g ai/ha; visual injury after approx. 10 d; 0 to 100 scale, 0 no effect, 100 complete control; read-out: Plant response rating, Galium
quantityName: pest or weed control at 31 g/ha (%)
Lab book: enter the figure in %, no units written.

In the examples that follow, each entry is paired with its recorded pest or weed control at 31 g/ha.
compound="CN1C[C@H](c2csc3c2CCOC3)[C@@H](C(=O)Nc2ccccc2S(C)(=O)=O)C1=O [Compound 1078]" quantityname="pest or weed control at 31 g/ha" unitlabel=% obsvalue=0
compound="COc1cccc([C@H]2CN(C)C(=O)[C@@H]2C(=O)Nc2cccc(F)c2F)c1F [Compound 1072]" quantityname="pest or weed control at 31 g/ha" unitlabel=% obsvalue=0
compound="CN1C[C@H](c2csc3c2CCC3)[C@@H](C(=O)Nc2ccc(F)c(F)c2F)C1=O [Compound 1081]" quantityname="pest or weed control at 31 g/ha" unitlabel=% obsvalue=0
compound="CN1C[C@H](c2ccc(C(F)(F)F)c(O)c2)[C@@H](C(=O)Nc2cccc(F)c2F)C1=O [Compound 1173]" quantityname="pest or weed control at 31 g/ha" unitlabel=% obsvalue=0
compound="CN1C[C@H](c2cc(C(F)F)cs2)[C@@H](C(=O)Nc2cccc(F)n2)C1=O [Compound 1090]" quantityname="pest or weed control at 31 g/ha" unitlabel=% obsvalue=30

Input: Tell me reported pest or weed control at 31 g/ha for CN1C[C@H](c2cccc(C(F)(F)F)c2)[C@@H](C(=O)Nc2cnccc2C(F)(F)F)C1=O [Compound 1066] , tested with Galium (catchweed bedstraw, Galium aparine).
Output: 0

Input: Tell me reported pest or weed control at 31 g/ha for CN1CC[C@H](c2ccccc2C(F)(F)F)[C@@H](C(=O)Nc2cccc(F)c2F)C1=O [Compound 1009] , tested with Galium (catchweed bedstraw, Galium aparine).
Output: 0

Input: Tell me reported pest or weed control at 31 g/ha for CN1C[C@H](c2ccc(C(F)(F)F)cn2)[C@@H](C(=O)Nc2ccc(F)c(F)c2F)C1=O [Compound 1106] , tested with Galium (catchweed bedstraw, Galium aparine).
Output: 40

Input: Tell me reported pest or weed control at 31 g/ha for CN1CC(c2cccc(C(F)(F)F)c2)C(C(=O)Nc2ccccc2CO)C1=O (stereo not shown) [Compound 1145] , tested with Galium (catchweed bedstraw, Galium aparine).
Output: 0

Input: Tell me reported pest or weed control at 31 g/ha for CN1C[C@H](c2csc3c2CCCC3)[C@@H](C(=O)Nc2ccc(F)c(F)c2F)C1=O [Compound 1079] , tested with Galium (catchweed bedstraw, Galium aparine).
Output: 0

---

Item-by-item account of Plant response rating, Ragweed
- Tested on: ragweed (common ragweed, Ambrosia elatior)
- measurementProtocol: Test A postemergence
- Type: in vivo
- conditionNotes: Postemergence, 500 g ai/ha; 0 to 100 scale where 0 is no effect and 100 is complete control
Reply: number alone, nothing else.

In the examples that follow, each entry is paired with its recorded Plant response rating, Ragweed.
compound="CCc1ccc(C2CNC(=O)C2C(=O)Nc2cccc(F)c2F)cc1 (stereo not shown)" system="ragweed (common ragweed, Ambrosia elatior)" quantityname="Plant response rating, Ragweed" obsvalue=20
compound="O=C(Nc1cccc(F)c1F)C1C(=O)N(C2C=CCCC2)CC1c1cccc(C(F)(F)F)c1 (stereo not shown)" system="ragweed (common ragweed, Ambrosia elatior)" quantityname="Plant response rating, Ragweed" obsvalue=0
compound="O=C1NCC(c2cccc(F)c2F)C1C(=O)Nc1cccc(F)c1F (stereo not shown)" system="ragweed (common ragweed, Ambrosia elatior)" quantityname="Plant response rating, Ragweed" obsvalue=0
compound="O=C1NCC(c2cc(Br)cs2)C1C(=O)Nc1cccc(F)c1F (racemic)" system="ragweed (common ragweed, Ambrosia elatior)" quantityname="Plant response rating, Ragweed" obsvalue=30
compound="COCc1cccc(C2CNC(=O)C2C(=O)Nc2cccc(F)c2F)c1 (stereo not shown)" system="ragweed (common ragweed, Ambrosia elatior)" quantityname="Plant response rating, Ragweed" obsvalue=0

Input: # lookup: Plant response rating, Ragweed of CS(=O)(=O)c1ccccc1NC(=O)C1C(=O)NCC1c1ccc(C2CC2)cc1 (racemic)
Output: 0

Input: # lookup: Plant response rating, Ragweed of O=C1NCC(c2ccnc(C(F)(F)F)c2)C1C(=O)Nc1ccccc1F (racemic)
Output: 20

Input: # lookup: Plant response rating, Ragweed of O=C1NCC(c2cccc(C(F)(F)F)c2F)C1C(=O)Nc1ccc(F)cc1F (stereo not shown)
Output: 0

Input: # lookup: Plant response rating, Ragweed of O=C1NCC(c2cc(C(F)(F)F)cc(C(F)(F)F)c2)C1C(=O)Nc1cccc(F)c1F (stereo not shown)
Output: 50

Input: # lookup: Plant response rating, Ragweed of Cc1ccc(C2CN(C)C(=O)C2C(=O)Nc2ccccc2F)c(F)c1 (stereo not shown)
Output: 20

---

Item-by-item account of pest or weed control at 250 g/ha
- Tested on: barnyardgrass (Echinochloa crus-galli)
- measurementProtocol: Test G Post-Emergence Protocol
- Format: in vivo
- conditionNotes: Echinochloa crus-galli, post-emergence, 312 h, 250 g ai/ha, evaluated after 13 days, read-out: damage to plant, Barnyardgrass (100=total damage to plant; 0=no damage to plant)
- Description: Seeds of corn (Zea mays), giant foxtail (Setaria faberi), barnyardgrass (Echinochloa crus-galli), ivy-leaved morning glory (Ipomoea hederacea), redroot pigweed (Amaranthus retroflexus) and velvetleaf (Abutilon theophrasti) were sown in standard soil in pots. […]
Lab book: enter the figure in %, no units written.

In the examples that follow, each entry is paired with its recorded pest or weed control at 250 g/ha.
compound="C=Cc1ccc([C@H]2CN(C)C(=O)[C@@H]2C(=O)Nc2ccccc2F)cc1 (racemic)" system="barnyardgrass (Echinochloa crus-galli)" quantityname="pest or weed control at 250 g/ha" unitlabel=% obsvalue=10
compound="CN1C[C@@H](c2ccc(C(F)(F)F)cc2)[C@H](C(=O)Nc2[nH]ncc2C#N)C1=O (racemic)" system="barnyardgrass (Echinochloa crus-galli)" quantityname="pest or weed control at 250 g/ha" unitlabel=% obsvalue=0
compound="CN1C[C@@H](c2ccc(C(F)(F)F)cc2)[C@H](C(=O)Nc2cnn(C)n2)C1=O (racemic)" system="barnyardgrass (Echinochloa crus-galli)" quantityname="pest or weed control at 250 g/ha" unitlabel=% obsvalue=0

Input: # lookup: pest or weed control at 250 g/ha of CN1C[C@@H](c2ccc(C(F)(F)F)cc2)[C@H](C(=O)Nc2ccc(Cl)cc2F)C1=O (racemic)
Output: 40

---

Item-by-item account of plant injury at 250 g/ha
- Test system: corn (Zea mays)
- measurementProtocol: Test G Post-Emergence Protocol
- Type: in vivo
- conditionNotes: Zea mays, post-emergence, 312 h, 250 g ai/ha, evaluated after 13 days, read-out: damage to plant, Corn (100=total damage to plant; 0=no damage to plant)
Lab book: enter the figure in %, no units written.

In the examples that follow, each entry is paired with its recorded plant injury at 250 g/ha.
compound="CN1C[C@@H](c2ccc(C(F)(F)F)cc2)[C@H](C(=O)Nc2cccc(C(F)(F)F)c2[N+](=O)[O-])C1=O (racemic)" quantityname="plant injury at 250 g/ha" obsvalue=0
compound="CN1C[C@@H](c2ccc(C(F)(F)F)cc2)[C@H](C(=O)Nc2ncc(Cl)s2)C1=O (racemic)" quantityname="plant injury at 250 g/ha" obsvalue=0
compound="CN1C[C@@H](c2ccc(C(F)(F)F)nc2)[C@H](C(=O)Nc2cccc(F)n2)C1=O (racemic)" quantityname="plant injury at 250 g/ha" obsvalue=0
compound="CN1C[C@@H](c2ccc(C(F)(F)F)nc2)[C@H](C(=O)Nc2cccc(F)c2F)C1=O (racemic)" quantityname="plant injury at 250 g/ha" obsvalue=10
compound="CN1C[C@@H](c2ccc(C(F)(F)F)cc2)[C@H](C(=O)Nc2cccnc2Cl)C1=O (racemic)" quantityname="plant injury at 250 g/ha" obsvalue=80

Input: # lookup: plant injury at 250 g/ha of CN1C[C@@H](c2ccc(C(F)(F)F)cc2)[C@H](C(=O)Nc2cccc(F)c2)C1=O (racemic)
Output: 30

Input: # lookup: plant injury at 250 g/ha of CN1C[C@@H](c2ccc(C(F)(F)F)cc2)[C@H](C(=O)Nc2nnc(C(F)(F)F)[nH]2)C1=O (racemic)
Output: 30

---

- System: wheat (Triticum aestivum)
- measurementProtocol: Test A postemergence
- Assay type: in vivo
- conditionNotes: Postemergence, 500 g ai/ha; 0 to 100 scale where 0 is no effect and 100 is complete control
quantityName: Plant response rating, Wheat
Reply: number alone, nothing else.

In the examples that follow, each entry is paired with its recorded Plant response rating, Wheat.
compound="C=C(Cl)CN1CC(c2cccc(C(F)(F)F)c2)C(C(=O)Nc2cccc(F)c2F)C1=O (stereo not shown)" obsvalue=30
compound="O=C1NCC(c2cc(F)cc(Cl)c2)C1C(=O)Nc1ccccc1F (stereo not shown)" obsvalue=60
compound="O=C1NCC(c2ccc(C(F)(F)F)cc2F)C1C(=O)Nc1cccc(F)c1F (stereo not shown)" obsvalue=30

Input: # lookup: Plant response rating, Wheat of O=C1NCC(c2c(F)cccc2F)C1C(=O)Nc1ccccc1F (racemic)
Output: 0
